// each record: one item and its IC50 for PIK3CA (human)

                                   compound       result
0  CCc1nc2ncc(-c3ccc4c(c3)CN(c3nc(C)nc5c3CC(C)(C)CC5)CCO4)cc2[nH]1  10 to 50 nM

# query: IC50 of entry `CNc1ncc(-c2ccc3c(c2)CN(c2ncnc4c2CC(C)(C)CC4)CCO3)cc1NS(C)(=O)=O`
50 to 250 nM

# query: IC50 of entry `CC(C)(CN)CNS(=O)(=O)c1cc(-c2ccc3c(c2)CN(c2ncnc4c2CC(C)(C)CC4)CCO3)cnc1N`
50 to 250 nM

# query: IC50 of entry `Cc1nc(CN(C)C)nc(N2CCOc3ccc(-c4ccc5[nH]c(C(F)F)nc5c4)cc3C2)c1Cc1ccc(F)cc1`
≤ 10 nM

# query: IC50 of entry `CCNc1nc2ccc(-c3ccc4c(c3)CN(c3ccnc5cc(OC)ccc35)CCO4)cc2[nH]1`
≤ 10 nM

# query: IC50 of entry `Cc1ncnc(N2CCOc3ccc(-c4ccc5nc(N)ncc5c4)cc3C2)c1Cc1ccc(F)cc1`
250 to 1000 nM

# query: IC50 of entry `CCS(=O)(=O)c1cc(-c2ccc3c(c2)CN(c2ncnc4c2CC(C)(C)CC4)CCO3)cnc1N`
10 to 50 nM

# query: IC50 of entry `Cc1nc(N2CCOc3ccc(-c4ccc5nc(C)[nH]c5c4)cc3C2)c2ccccc2n1`
10 to 50 nM

# query: IC50 of entry `CC[C@H]1CCc2c(nc(C)nc2N2CCOc3ccc(-c4cnc5nc(NC(=O)OC)[nH]c5c4)cc3C2)C1`
≤ 10 nM

# query: IC50 of entry `Cc1nc2ccc(-c3ccc4c(c3)CN(c3ncnc5c(C)cccc35)CCO4)cc2[nH]1`
10 to 50 nM

# query: IC50 of entry `CC1(C)CCc2ncnc(N3CCOc4ccc(-c5cnc(N)c(S(=O)(=O)CCCO)c5)cc4C3)c2C1`
10 to 50 nM

# query: IC50 of entry `Cc1nc2ccc(-c3ccc4c(c3)CN(c3nc(-c5ccccn5)nc5c3CC(C)(C)CC5)CCO4)cc2[nH]1`
250 to 1000 nM

# query: IC50 of entry `COCCc1c(C)nc(CN(C)C)nc1N1CCOc2ccc(-c3cnc4sc(N)nc4c3)cc2C1`
10 to 50 nM

# query: IC50 of entry `CNC(=O)c1ccc(-c2ccc3c(c2)CN(c2ncnc(C)c2Cc2ccc(F)cc2)CCO3)cc1`
10 to 50 nM

# query: IC50 of entry `Cc1nc2ccc(-c3ccc4c(c3)CN(c3ncnc(C)c3Cc3cccc(F)c3)CCO4)cc2[nH]1`
10 to 50 nM

---

// each record: one item and its IC50 for PIK3CA (human) (UniProt P42336)

// solved cases for IC50 follow
>>> df
                                   compound        result
0  CCC1CCc2nc(C)nc(N3CCOc4ccc(-c5cnc6nc(C)[nH]c6c5)cc4C3)c2C1 (configuration not stated)   10 to 50 nM
1  Cc1nc2ccc(-c3ccc4c(c3)CN(c3ncnc5c3CCCC5)CCO4)cc2[nH]1  50 to 250 nM
2  CC1(C)CCc2ncnc(N3CCOc4ccc(-c5cnc(N)c(S(=O)(=O)NC[C@H]6C[C@H]7CNC[C@H]7C6)c5)cc4C3)c2C1  50 to 250 nM
3  Cc1nc2ccc(-c3ccc4c(c3)CN(c3ncnc(C)c3C(C)c3cccc(F)c3)CCO4)cc2[nH]1 (configuration not stated)       ≤ 10 nM
4  COc1ccc2c(N3CCOc4ccc(-c5ccc6nc(C)[nH]c6c5)cc4C3)nc(C)nc2c1   10 to 50 nM

# query: IC50 of entry `CCc1nc(CN(C)C)nc(N2CCOc3ccc(-c4ccc5[nH]c(C)nc5c4)cc3C2)c1C`
10 to 50 nM

# query: IC50 of entry `COc1c(OCC2CC2)ccc2c(N3CCOc4ccc(-c5ccc6nc(C)[nH]c6c5)cc4C3)ncnc12`
10 to 50 nM

# query: IC50 of entry `COc1cc2nccc(N3CCOc4ccc(-c5cnc6nc(N)[nH]c6c5)cc4C3)c2cc1OC`
≤ 10 nM

# query: IC50 of entry `Cc1nc2ncc(-c3ccc4c(c3)CN(c3ncnc(N5CCN(C)CC5)c3C)CCO4)cc2[nH]1`
50 to 250 nM

# query: IC50 of entry `CN(CCO)S(=O)(=O)c1cc(-c2ccc3c(c2)CN(c2ncnc4c2CC(C)(C)CC4)CCO3)cnc1N`
≤ 10 nM

# query: IC50 of entry `COc1ccc2ncnc(N3CCOc4ccc(-c5cnc6nc(N)[nH]c6c5)cc4C3)c2c1`
≤ 10 nM

# query: IC50 of entry Cc1nc2ncc(-c3ccc4c(c3)CN(c3nc(CNC(C)C5CC5)nc5c3CC(C)(C)CC5)CCO4)cc2[nH]1 (configuration not stated)
10 to 50 nM
